Test system: amyloid-beta (1-42) peptide
Assay: ELISA assay of amyloid-beta (1-42) in conditioned media of 2B7 cells
Type: cell-based
Conditions: 5 h, Aβ-42, 2B7 cells, 5 hours; read-out: IC50 range
pIC50: −log10 of the molar value.
VALUE KIND: pIC50

Known pIC50 results, listed for orientation:
# MOLECULE, OBSERVED MEASUREMENT
records = [
    ("C[C@@H]1C[C@H]([C@H](O)C(C)(C)OC(=O)O)OC2C1[C@@]1(C)CC[C@@]34C[C@@]35CC[C@H](O[C@@H]3OC[C@@H](O)[C@H](O)[C@H]3O)C(C)(C)[C@@H]5CC[C@H]4[C@]1(C)[C@H]2O (stereo partly shown)", "5.00 to 6.00"),
    ("C[C@@H]1C[C@H]([C@H](O)C(C)(C)O)OC2C(=O)[C@@]3(C)[C@@H]4CC[C@H]5C(C)(C)[C@@H](O[C@@H]6OC[C@@H](O)[C@H](O)[C@H]6O)CC[C@@]56C[C@@]46CC[C@]3(C)C21 (stereo partly shown)", "< 5.00"),
    ("CC(=O)O[C@@H]([C@H]1C[C@@H](C)C2C(O1)[C@H](O)[C@@]1(C)[C@@H]3CC[C@H]4C(C)(C)[C@@H](OC5CN(C6CCCC6)CCO5)CC[C@@]45C[C@@]35CC[C@]21C)C(C)(C)O (stereo partly shown)", "≥ 6.00"),
]

stdin: What pIC50 value was documented for this molecule, CCN1CCO[C@@H](O[C@H]2CC[C@]34C[C@]35CC[C@]3(C)[C@@H]6[C@H](O[C@@H]([C@H](OC(C)=O)C(C)(C)O)C[C@H]6C)[C@H](O)[C@@]3(C)[C@@H]5CC[C@H]4C2(C)C)C1 ?
stdout: ≥ 6.00
